assay.target: T1, HIS-TRB3 (Arabidopsis thaliana, UniProt Q9M2X3 1-295)
T1 sequence: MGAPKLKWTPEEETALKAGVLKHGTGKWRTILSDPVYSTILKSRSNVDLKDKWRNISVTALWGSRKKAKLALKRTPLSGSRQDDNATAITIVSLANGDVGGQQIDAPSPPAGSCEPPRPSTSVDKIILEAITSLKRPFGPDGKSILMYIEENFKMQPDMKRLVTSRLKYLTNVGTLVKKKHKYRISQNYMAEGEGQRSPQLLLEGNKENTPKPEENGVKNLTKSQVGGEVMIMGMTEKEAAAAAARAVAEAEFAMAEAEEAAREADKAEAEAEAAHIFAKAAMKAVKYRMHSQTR
procedure.details: MST; MST: 50 mM NaPO4, 300 mM NaCl, pH 7.5, 0.05% Tween 20, 1.25 mg/ml BSA; 20 nM Cy3-dsDNA, 260 pM-8.5 uM protein; 10 min at RT
experimental.conditions: protein: recombinant; tags: 6xHis (pET-28b); label: 5'-Cy3 on both strands; blunt
measure.name: Kd

- R4 telo-box (4x repeat) (dsDNA) DNA 1: GGTTTAGGGTTTAGGGTTTAGGGTTTAG DNA 2: CTAAACCCTAAACCCTAAACCCTAAACC: 531 nM
- (C)AACCTAA (dsDNA) DNA 1: CATCATGGCAACCTAAGGCTGGTACTAG DNA 2: CTAGTACCAGCCTTAGGTTGCCATGATG: 298 nM
- (C)GACCTAA (dsDNA) DNA 1: CATCATGGCGACCTAAGGCTGGTACTAG DNA 2: CTAGTACCAGCCTTAGGTCGCCATGATG: 652 nM
- proSEP3-telo-box (dsDNA) DNA 1: TTTAAATGTTAGGGTTTTTTGTAGGATT DNA 2: AATCCTACAAAAAACCCTAACATTTAAA: 640 nM
